target_or_test_system: T1, SARS-CoV-2 receptor-binding domain (RBD), S protein residues 319-539 (SARS-CoV-2, UniProt P0DTC2 319-539)
T1 construct: also called WT RBD; SARS-COV-2 RBD
test: ELISA on coated RBD
recorded_metric: EC50

Q: Data request, read-out EC50, for C844 (antibody, V domains shown) VH: EVQLVESGGGLVKPGGSLRLSCVATGFSFSDAWMNWVRQAPGKGLEWVGRIRSEIADGTTDYAAPVKGRFTISRDDARNTLYLQMNSLEIEDTAVYYCTTGVVVVVSSSPDDAFDVWGQGTMVTVSS VL: DIQMTQSPSSLSASVGDRVTITCRASQSIGHYLNWYQQKPGKAPKLLIYAASSLQSGVPSRFSGSGSGAGFTLTVNGLQPEDLATYYCQQYYTTPPTFGQGTKVEIK
Ans: 1.28 ng/mL

Provenance of the data: patent US20240218057A1
